This collection of values is drawn from ChEMBL document CHEMBL3792365.

Assay: Growth inhibition of human HOP62 cells at 10 uM after 48 hrs by sulforhodamine B assay
Type: functional
Conditions: HOP-62, 48 h, values are per cent of control
OBSERVED PROPERTY: growth, % of control at 10 µM

{"SMILES STR": "COc1ccc(/C=C(\\C#N)c2ccc3c(c2)OCO3)cc1", "RESULT": "43.8%"}
{"SMILES STR": "COc1cc(/C(C#N)=C/c2ccc3c(c2)OCCO3)cc(OC)c1OC", "RESULT": "40.8%"}
{"SMILES STR": "N#C/C(=C\\c1cccc2ccccc12)c1ccc2c(c1)OCO2", "RESULT": "75.9%"}
{"SMILES STR": "N#C/C(=C\\c1ccc2ccccc2n1)c1ccc2c(c1)OCO2", "RESULT": "69.7%"}
{"SMILES STR": "COc1ccc(/C(C#N)=C/c2ccc3c(c2)OCO3)cc1", "RESULT": "86.6%"}
{"SMILES STR": "COc1ccc(/C=C(\\C#N)c2ccc3c(c2)OCO3)c(OC)c1", "RESULT": "54%"}
{"SMILES STR": "N#C/C(=C\\c1cccnc1Cl)c1ccc2c(c1)OCO2", "RESULT": "103%"}
{"SMILES STR": "COc1ccc(/C=C(\\C#N)c2ccc3c(c2)OCO3)cn1", "RESULT": "88.1%"}
{"SMILES STR": "COc1ccc(/C(C#N)=C/c2ccc3c(c2)OCCO3)cc1", "RESULT": "68.3%"}
{"SMILES STR": "COc1ccc(/C=C(\\C#N)c2ccc3c(c2)OCO3)c2ccccc12", "RESULT": "44.4%"}
{"SMILES STR": "N#C/C(=C\\c1ccc(Cl)c(Cl)c1)c1ccc2c(c1)OCO2", "RESULT": "88%"}
{"SMILES STR": "COc1cc(/C=C(\\C#N)c2ccc3c(c2)OCO3)cc(OC)c1OC", "RESULT": "92.2%"}
{"SMILES STR": "N#C/C(=C\\c1ccc2c(c1)OCO2)c1ccc2c(c1)OCO2", "RESULT": "76.7%"}
{"SMILES STR": "COc1ccc(/C=C(\\C#N)c2ccc3c(c2)OCO3)c(Cl)c1OC", "RESULT": "87.2%"}
{"SMILES STR": "N#C/C(=C\\c1cc(Br)cc(Br)c1)c1ccc2c(c1)OCO2", "RESULT": "104%"}
{"SMILES STR": "N#C/C(=C\\c1ccc(Cl)cc1Cl)c1ccc2c(c1)OCO2", "RESULT": "88%"}
{"SMILES STR": "N#C/C(=C\\c1c(Cl)cccc1Cl)c1ccc2c(c1)OCO2", "RESULT": "90.6%"}
{"SMILES STR": "COc1ccc(/C(C#N)=C/c2ccc3c(c2)OCCO3)cc1OC", "RESULT": "36.9%"}
{"SMILES STR": "COc1ccc(/C=C(\\C#N)c2ccc3c(c2)OCO3)cc1OC", "RESULT": "97.6%"}
{"SMILES STR": "N#C/C(=C\\c1cc2ccccc2s1)c1ccc2c(c1)OCO2", "RESULT": "58.5%"}
{"SMILES STR": "COc1cc(/C=C(\\C#N)c2ccc3c(c2)OCO3)cc(OC)c1", "RESULT": "92.3%"}
{"SMILES STR": "N#C/C(=C\\c1ccsc1)c1ccc2c(c1)OCO2", "RESULT": "94.5%"}
{"SMILES STR": "N#C/C(=C\\c1cc(F)cc(F)c1)c1ccc2c(c1)OCO2", "RESULT": "91.9%"}
